# Tested on: SF-268 CNS
# protocolNotes: NCI tumour cell line growth inhibition, 48 h
Quick reference for TGI among some compounds

Past entries and their recorded results:
compound	assayedTarget	TGI
Cc1cccc(NC(=O)CC(=O)N2N=C(N3c4ccccc4Sc4ccccc43)CC2c2ccccc2)c1 (stereo unspecified)	SF-268 CNS	> 100 µM
COc1ccc(C2=CC(c3cc(OC)c(OC)c(OC)c3)n3ncnc3N2)cc1 (stereo unspecified)	SF-268 CNS	29.7 µM
Cn1c(=O)n(-c2ccc(C(C)(C)C#N)cc2)c2c3cc(-c4cnc5ccccc5c4)ccc3ncc21	SF-268 CNS	> 100 µM

The value of TGI measured for the compound O=C1/C(=C/c2ccccc2S)N=C(c2ccccc2)N1c1ccc2c(c1)Sc1cc(N3C(=O)/C(=C/c4ccccc4S)N=C3c3ccccc3)ccc1N2 turned out to be 39.6 µM

Quick note, TGI for CN1CCCC1c1cccnc1.O=C(O)c1ccccc1O.O=C([O-])c1ccccc1[OH2+].O=C([O-])c1ccccc1[OH2+].O=C([O-])c1ccccc1[OH2+].[Mn+2] (stereo unspecified) landed at 73.4 µM

TGI measured on [N-]=[N+]=NC1(c2ccccc2)C(=O)Nc2ccccc2C1=O (stereo unspecified) = > 100 µM

What the record says about C/C(=N\N=C(N)N)c1c(C(=O)OCCCCCCOC(=O)c2nc3sccn3c2/C(C)=N/N=C(N)N)nc2sccn12 : TGI is > 100 µM

// TGI lookup, compound = CCOC(=O)c1c2c(n(C)c1-c1ccccc1)C(=O)C(C)=CC2=O , result: 23.1 µM
